measurement-name: GI50 (nM)
Write down the numeric answer in nM and omit the unit.

Case `OCc1cc(-c2ccc(-c3cccs3)s2)sc1CO` , NCI-H226 lung cancer cells, GI50 recorded as 257

Case `OCc1ccc(-c2ccc(-c3ccc(-c4cccs4)s3)s2)s1` , NCI-H226 lung cancer cells, GI50 recorded as 5890

Case OCc1ccc(-c2ccc(-c3cccs3)s2)s1 [drawing 30] , NCI-H226 lung cancer cells, GI50 recorded as 117

Case O=Cc1ccc(-c2ccc(-c3cccs3)s2)s1 [drawing 32] , NCI-H226 lung cancer cells, GI50 recorded as 24.5

Case `OCc1ccc(-c2cccs2)s1` , NCI-H226 lung cancer cells, GI50 recorded as 316

Case OCc1csc(-c2ccc(-c3ccc(CO)s3)s2)c1 [drawing 38] , NCI-H226 lung cancer cells, GI50 recorded as 14.1

Case `CC(=O)OCc1ccc(-c2ccc(-c3cccs3)s2)s1` , NCI-H226 lung cancer cells, GI50 recorded as 324

----------
I'd appreciate it if you could supply GI50 values for the items below.
Write down the numeric answer in nM and omit the unit.

Case `OCc1ccc(-c2cccs2)s1` , KM20L2 colon cancer cells, GI50 recorded as 1580

Case `CC(=O)OCc1ccc(-c2ccc(-c3cccs3)s2)s1` , KM20L2 colon cancer cells, GI50 recorded as 132

Case O=Cc1ccc(-c2ccc(-c3cccs3)s2)s1 [drawing 32] , KM20L2 colon cancer cells, GI50 recorded as 490

Case OCc1ccc(-c2ccc(-c3cccs3)s2)s1 [drawing 30] , KM20L2 colon cancer cells, GI50 recorded as 245

----------
test system: TBE cells (ras-transformed human bronchial epithelial cells)
I'd appreciate it if you could supply GI50 values for the items below.
Write down the numeric answer in µg/mL and omit the unit.

`NCc1ccc(-c2ccc(-c3ccc(CN)s3)s2)s1` yielded GI50 of 4

`NCc1ccc(-c2ccc(-c3cccs3)s2)s1` yielded GI50 of 0.001

`OCc1ccc(-c2ccc(CO)s2)s1` yielded GI50 of 0.03

`O=Cc1ccc(-c2ccc(-c3cc(CO)cs3)s2)s1` yielded GI50 of 0.004

`CC[N+](CC)(CC)Cc1ccc(-c2ccc(-c3cccs3)s2)s1` yielded GI50 of 2

`O=Cc1ccc(-c2ccc(-c3ccsc3)s2)s1` yielded GI50 of 0.005

`OCc1ccc(-c2ccc(-c3ccsc3)s2)s1` yielded GI50 of 0.002

`OCc1csc(-c2ccc(-c3ccc(CO)s3)s2)c1` yielded GI50 of 0.002

`O=Cc1ccc(-c2ccc(-c3ccc(C=O)s3)s2)s1` yielded GI50 of 0.01

`O=Cc1ccc(-c2ccc(-c3sccc3C=O)s2)s1` yielded GI50 of 0.03

`O=Cc1ccc(-c2ccc(-c3sccc3CO)s2)s1` yielded GI50 of 0.02

`OCc1ccc(-c2ccc(-c3sccc3CO)s2)s1` yielded GI50 of 0.002

`OCc1ccc(-c2ccc(-c3cccs3)s2)s1` yielded GI50 of 0.02

`O=Cc1ccc(-c2ccc(-c3cccs3)s2)s1` yielded GI50 of 0.03

`NCc1ccc(-c2ccc(-c3ccc(CO)s3)s2)s1` yielded GI50 of 0.02

`O=Cc1ccc(-c2ccc(CO)s2)s1` yielded GI50 of 0.05

`O=Cc1ccc(-c2ccc(-c3ccc(CO)s3)s2)s1` yielded GI50 of 0.002

----------
I'd appreciate it if you could supply GI50 values for the items below.
Write down the numeric answer in µM and omit the unit.

Case O=Cc1ccc(-c2ccc(-c3cccs3)s2)s1 [drawing 32] , M-14 melanoma cells, GI50 recorded as 63.1

Case OCc1ccc(-c2ccc(-c3ccsc3)s2)s1 [drawing 37] , M-14 melanoma cells, GI50 recorded as 42.7

Case `CC(=O)OCc1ccc(-c2ccc(-c3cccs3)s2)s1` , M-14 melanoma cells, GI50 recorded as 39.8

Case `OCc1cc(-c2ccc(-c3cccs3)s2)sc1CO` , M-14 melanoma cells, GI50 recorded as 51.3
